Data credit: PubChem BioAssay AID1963977

system: 624824-186-R-J3-PDC multicell spheroids, viability; assay: Anticancer human tumor 624824-186-R-J3-PDC patient-derived colon adenocarcinoma cell line growth inhibition [PI3K]; conditions: second compound 0.01 µM; first compound 10 µM; stronger effect = lower value;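 further: luminescent signal used as a stand-in for spheroid viability; spheroids exposed to agents for seven days before luminescence read; percent viability relative to DMSO vehicle control wells taken as 100%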
viability, T/C values for the compounds below.
measurement.name: viability, T/C (%)

INSERT INTO assay_data (compound, measurement_name, unit_abbreviation, reported) VALUES
  ('C=CC(=O)N1CCN(c2nc(=O)n(-c3c(C)ccnc3C(C)C)c3nc(-c4c(O)cccc4F)c(F)cc23)C(C)C1 (stereo unspecified) + COc1c(OCCCN2CCOCC2)ccc2c3n(c(=NC(=O)c4cnc(N)nc4)nc12)CCN3', 'viability, T/C', '%', 98.8),
  ('CC1(C)CCC(Nc2ncc(C(F)(F)F)c(-c3c[nH]c4c(P(C)(C)=O)c(C#N)ccc34)n2)CN1 (stereo unspecified) + COc1c(OCCCN2CCOCC2)ccc2c3n(c(=NC(=O)c4cnc(N)nc4)nc12)CCN3', 'viability, T/C', '%', 3.28),
  ('CC(Cn1ccc(-c2ccc(C#N)c(Cl)c2)n1)NC(=O)c1cc(C(C)O)[nH]n1 (stereo unspecified) + COc1c(OCCCN2CCOCC2)ccc2c3n(c(=NC(=O)c4cnc(N)nc4)nc12)CCN3', 'viability, T/C', '%', 105),
  ('CC1(C)CCC(Nc2ncc(C(F)(F)F)c(-c3c[nH]c4c(P(C)(C)=O)c(C#N)ccc34)n2)CN1 (stereo unspecified) + CC(Nc1ccc2c(c1)OCCn1cc(N3C(=O)OCC3C(F)F)nc1-2)C(N)=O', 'viability, T/C', '%', 3.61),
  ('CCCS(=O)(=O)Nc1ccc(F)c(C(=O)c2c[nH]c3ncc(-c4ccc(Cl)cc4)cc23)c1F + COc1c(OCCCN2CCOCC2)ccc2c3n(c(=NC(=O)c4cnc(N)nc4)nc12)CCN3', 'viability, T/C', '%', 13.6),
  ('CCCS(=O)(=O)Nc1ccc(F)c(C(=O)c2c[nH]c3ncc(-c4ccc(Cl)cc4)cc23)c1F + CC(Nc1ccc2c(c1)OCCn1cc(N3C(=O)OCC3C(F)F)nc1-2)C(N)=O', 'viability, T/C', '%', 12.9),
  ('C#Cc1c(F)ccc2cc(O)cc(-c3ncc4c(N5CC6CCC(C5)N6)nc(OCC56CCCN5CC(F)C6)nc4c3F)c12 (stereo unspecified) + COc1c(OCCCN2CCOCC2)ccc2c3n(c(=NC(=O)c4cnc(N)nc4)nc12)CCN3', 'viability, T/C', '%', 103),
  ('C=CC(=O)N1CCN(c2nc(=O)n(-c3c(C)ccnc3C(C)C)c3nc(-c4c(O)cccc4F)c(F)cc23)C(C)C1 (stereo unspecified) + CC(Nc1ccc2c(c1)OCCn1cc(N3C(=O)OCC3C(F)F)nc1-2)C(N)=O', 'viability, T/C', '%', 106),
  ('CNC(=O)c1ccc(N2C(=S)N(c3ccc(C#N)c(C(F)(F)F)c3)C(=O)C2(C)C)cc1F + COc1c(OCCCN2CCOCC2)ccc2c3n(c(=NC(=O)c4cnc(N)nc4)nc12)CCN3', 'viability, T/C', '%', 98),
  ('CC1(C)CCC(CN2CCN(c3ccc(C(=O)NS(=O)(=O)c4ccc(NCC5CCOCC5)c([N+](=O)[O-])c4)c(Oc4cnc5[nH]ccc5c4)c3)CC2)=C(c2ccc(Cl)cc2)C1 + COc1c(OCCCN2CCOCC2)ccc2c3n(c(=NC(=O)c4cnc(N)nc4)nc12)CCN3', 'viability, T/C', '%', 107),
  ('C[C@@H](NC(=O)c1ncnc(N)c1Cl)c1ncc(C(=O)Nc2cc(C(F)(F)F)c(Cl)cn2)s1 + COc1c(OCCCN2CCOCC2)ccc2c3n(c(=NC(=O)c4cnc(N)nc4)nc12)CCN3', 'viability, T/C', '%', 80.2),
  ('C#Cc1c(F)ccc2cc(O)cc(-c3ncc4c(N5CC6CCC(C5)N6)nc(OCC56CCCN5CC(F)C6)nc4c3F)c12 (stereo unspecified) + CC(Nc1ccc2c(c1)OCCn1cc(N3C(=O)OCC3C(F)F)nc1-2)C(N)=O', 'viability, T/C', '%', 101),
  ('CC(Cn1ccc(-c2ccc(C#N)c(Cl)c2)n1)NC(=O)c1cc(C(C)O)[nH]n1 (stereo unspecified) + CC(Nc1ccc2c(c1)OCCn1cc(N3C(=O)OCC3C(F)F)nc1-2)C(N)=O', 'viability, T/C', '%', 95.5),
  ('CNC(=O)c1ccc(N2C(=S)N(c3ccc(C#N)c(C(F)(F)F)c3)C(=O)C2(C)C)cc1F + CC(Nc1ccc2c(c1)OCCn1cc(N3C(=O)OCC3C(F)F)nc1-2)C(N)=O', 'viability, T/C', '%', 99.1),
  ('CC1(C)CCC(CN2CCN(c3ccc(C(=O)NS(=O)(=O)c4ccc(NCC5CCOCC5)c([N+](=O)[O-])c4)c(Oc4cnc5[nH]ccc5c4)c3)CC2)=C(c2ccc(Cl)cc2)C1 + CC(Nc1ccc2c(c1)OCCn1cc(N3C(=O)OCC3C(F)F)nc1-2)C(N)=O', 'viability, T/C', '%', 43.2),
  ('Cn1nccc1Nc1nccc(-c2ccn(C(CO)c3ccc(Cl)c(F)c3)c(=O)c2)n1 (stereo unspecified) + CC(Nc1ccc2c(c1)OCCn1cc(N3C(=O)OCC3C(F)F)nc1-2)C(N)=O', 'viability, T/C', '%', 43.9),
  ('CC(C)NCC(C(=O)N1CCN(c2ncnc3c2C(C)CC3O)CC1)c1ccc(Cl)cc1 (stereo unspecified) + CC(Nc1ccc2c(c1)OCCn1cc(N3C(=O)OCC3C(F)F)nc1-2)C(N)=O', 'viability, T/C', '%', 45.3),
  ('Cn1ncc(Cl)c1-c1cc(C(=O)NC(CN)Cc2cccc(F)c2)sc1Cl (stereo unspecified) + COc1c(OCCCN2CCOCC2)ccc2c3n(c(=NC(=O)c4cnc(N)nc4)nc12)CCN3', 'viability, T/C', '%', 48.6),
  ('Cn1nccc1Nc1nccc(-c2ccn(C(CO)c3ccc(Cl)c(F)c3)c(=O)c2)n1 (stereo unspecified) + COc1c(OCCCN2CCOCC2)ccc2c3n(c(=NC(=O)c4cnc(N)nc4)nc12)CCN3', 'viability, T/C', '%', 34.4),
  ('Cn1ncc(Cl)c1-c1cc(C(=O)NC(CN)Cc2cccc(F)c2)sc1Cl (stereo unspecified) + CC(Nc1ccc2c(c1)OCCn1cc(N3C(=O)OCC3C(F)F)nc1-2)C(N)=O', 'viability, T/C', '%', 84),
  ('CC(C)NCC(C(=O)N1CCN(c2ncnc3c2C(C)CC3O)CC1)c1ccc(Cl)cc1 (stereo unspecified) + COc1c(OCCCN2CCOCC2)ccc2c3n(c(=NC(=O)c4cnc(N)nc4)nc12)CCN3', 'viability, T/C', '%', 52.7);
